Give measured self-cleavage for each item. Keep answers brief.
B1: HDV Ribozyme (parent)
chain: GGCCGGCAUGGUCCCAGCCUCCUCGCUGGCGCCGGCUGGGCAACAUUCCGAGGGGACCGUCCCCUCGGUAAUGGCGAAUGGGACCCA

# Variants of: B1
# experimental details: self-cleavage, relative activity (ratio to wild type); higher = more cleavage; co-transcriptional
Answers are plain numbers.

Would you mind giving self-cleavage for every variant in the list below?
1. G2C G73U
2. C30G C41U
3. C4G U46C
4. C48G C57G
5. G82A C84U
6. U9G C75A

0.0683
0.0702
0
1.03
0.215
0.201

Data origin: the RNAGym collection of RNA variant scans (doi:10.7554/elife.80360)
